All figures here come from PubChem BioAssay (NCI).

TGI by entry:
Tested on: OVCAR-3 ovarian
Protocol Details: NCI tumour cell line growth inhibition, 48 h
Measure Name: TGI (µM)

Compound: CC1(C)CCCC2(C)[C@@H]1CC[C@]13C[C@](C)(CC[C@@H]21)[C@@H]3CO (stereo not given in full)
Experimental System: OVCAR-3 ovarian
Qualifier Operator: >
Observed Measurement: 100
--
Compound: [N-]=[N+]=NCC(=O)c1c[nH]c(=O)[nH]c1=O
Experimental System: OVCAR-3 ovarian
Qualifier Operator: >
Observed Measurement: 100
--
Compound: CC(=O)N[C@@H](Cc1ccc(OP(=O)(O)O)cc1)C(=O)N[C@H]1CCC(=O)N2CCC[C@@H](C(=O)NCc3cccc4ccccc34)N2C1=O
Experimental System: OVCAR-3 ovarian
Qualifier Operator: >
Observed Measurement: 25
--
Compound: COc1ccccc1NC(=S)NNC(=O)c1cc(-c2ccccc2)nc2ccccc12
Experimental System: OVCAR-3 ovarian
Qualifier Operator: =
Observed Measurement: 18.2
--
Compound: CC12OC(C(=O)C13CC3)C1C(=O)c3cccc(O)c3C(=O)C12 (stereo not given)
Experimental System: OVCAR-3 ovarian
Qualifier Operator: =
Observed Measurement: 19.9
